- targetSystem: T1, GST-RGS12 PDZ domain fusion protein (human, UniProt O14924 17-85)
- T1 construct: also called human regulator of G-protein signalling 12; not shown: glutathione S-transferase encoded by vector pGEX-3X (Pharmacia)
- T1 sequence: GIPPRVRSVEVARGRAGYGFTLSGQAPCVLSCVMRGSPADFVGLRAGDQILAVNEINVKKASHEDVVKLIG
- protocolSummary: A/G assays
Ends that are not written are not given here. * marks the point of attachment. Biotin = O=C1N[C@H]2[C@H](CS[C@H]2CCCCC(=O)*)N1
valueKind: binding result

Examples with answers:
> print(dat)
                                     binder  measuredvalue
1  Biotin-SMQPDNSSDSDYDLHGAQRL (Only the last four residues are seen in the excerpts) [CD5 C-terminal peptide AA49L]     no binding
2  Biotin-GKGKSIGRAPEASLQDKEGA (Only the last four residues are seen in the excerpts) [CC CKR-2 C-terminal peptide AA42L]     no binding
3  Biotin-DTPSSSYTQSTMDHDLHDAL (Only the last four residues are seen in the excerpts) [CC CKR-4 C-terminal peptide AA44L]     no binding
4  Biotin-SPQPDSTDNDDYDDISAA [CD6 C-terminal peptide AA6L, biotinylated]     no binding

Would you kindly look at the next entry?
**Query** Which value of binding result has been reported for Biotin-VTSPNKHLGLVTPHKTELV [CD83 C-terminal peptide AA47L, biotinylated] in the records?
**Result** no binding
